biological target: WT SaPC (Staphylococcus aureus, UniProt A0A0H3JRU9); assay: ADP phosphorylation assay; type: biochemical
Sequence (A0A0H3JRU9 whole entry): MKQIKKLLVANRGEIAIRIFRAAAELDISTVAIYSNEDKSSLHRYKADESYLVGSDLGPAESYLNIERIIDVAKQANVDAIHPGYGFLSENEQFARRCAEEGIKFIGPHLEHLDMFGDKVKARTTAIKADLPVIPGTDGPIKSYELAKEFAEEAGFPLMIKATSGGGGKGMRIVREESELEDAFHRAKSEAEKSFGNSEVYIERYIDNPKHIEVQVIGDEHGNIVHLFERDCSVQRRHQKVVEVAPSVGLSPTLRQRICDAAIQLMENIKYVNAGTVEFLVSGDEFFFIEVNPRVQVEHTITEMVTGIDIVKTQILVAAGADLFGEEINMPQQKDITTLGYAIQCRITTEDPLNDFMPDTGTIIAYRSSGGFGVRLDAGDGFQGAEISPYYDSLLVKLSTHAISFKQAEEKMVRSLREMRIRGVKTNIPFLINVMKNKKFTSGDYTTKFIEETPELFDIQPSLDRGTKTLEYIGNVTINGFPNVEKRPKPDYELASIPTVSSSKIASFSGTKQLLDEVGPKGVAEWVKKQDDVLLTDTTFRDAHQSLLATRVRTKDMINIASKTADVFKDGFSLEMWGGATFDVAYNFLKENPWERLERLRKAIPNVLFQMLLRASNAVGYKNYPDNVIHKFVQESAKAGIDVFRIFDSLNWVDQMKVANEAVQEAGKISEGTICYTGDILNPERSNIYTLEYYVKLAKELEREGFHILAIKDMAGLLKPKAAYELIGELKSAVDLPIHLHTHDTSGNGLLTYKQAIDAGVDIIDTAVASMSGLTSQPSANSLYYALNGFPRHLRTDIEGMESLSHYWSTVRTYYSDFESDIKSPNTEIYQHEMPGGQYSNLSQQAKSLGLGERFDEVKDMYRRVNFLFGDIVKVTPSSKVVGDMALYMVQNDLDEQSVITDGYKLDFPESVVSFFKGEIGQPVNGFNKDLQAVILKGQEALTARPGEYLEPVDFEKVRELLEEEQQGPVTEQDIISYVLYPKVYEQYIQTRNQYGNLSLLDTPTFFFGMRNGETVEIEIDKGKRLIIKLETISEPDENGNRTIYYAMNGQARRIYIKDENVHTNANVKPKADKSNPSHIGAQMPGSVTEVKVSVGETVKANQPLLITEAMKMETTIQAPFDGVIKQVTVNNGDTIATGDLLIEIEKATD
Attribute Measured: pEC50
Answers are plain numbers, as −log10 of the molar value.

Lab note: need pEC50 with WT SaPC (Staphylococcus aureus, UniProt A0A0H3JRU9) for entry `CC(C)(COP(=O)(O)OP(=O)(O)OC[C@H]1O[C@@H](n2cnc3c(N)ncnc32)[C@H](O)[C@@H]1OP(=O)(O)O)[C@@H](O)C(=O)NCCC(=O)NCCS` , please look it up.
3.49

* * *

target: WT SaPC (Staphylococcus aureus); assay: Pyruvate carboxylation assay; type: biochemical; conditions: Acyl-CoA alone; Table 1
Attribute Measured: h (Hill coefficient)
Numbers only.

CC(=O)NCCNC(=O)CCNC(=O)[C@H](O)C(C)(C)COP(=O)(O)OP(=O)(O)OC[C@H]1O[C@@H](n2cnc3c(N)ncnc32)[C@H](O)[C@@H]1OP(=O)(O)O = 1.3
Nc1ncnc2c1ncn2[C@@H]1O[C@H](COP(=O)(O)O)[C@@H](OP(=O)(O)O)[C@H]1O = 1.6

Here is the next item to consider.
Return reported h (Hill coefficient); argument: `CC(C)(COP(=O)(O)OP(=O)(O)OC[C@H]1O[C@@H](n2cnc3c(N)ncnc32)[C@H](O)[C@@H]1OP(=O)(O)O)[C@@H](O)C(=O)NCCC(=O)NCCS`
1.4

* * *

Exercise: state measured h (Hill coefficient) for each of the molecules provided.
biological target: WT SaPC (Staphylococcus aureus); assay: Pyruvate carboxylation assay; format: biochemical; details: Acyl-CoA alone; Table 1
One number for each entry.

Example entries begin here.
CC(=O)OCCNC(=O)CCNC(=O)[C@H](O)C(C)(C)COP(=O)(O)OP(=O)(O)OC[C@H]1O[C@@H](n2cnc3c(N)ncnc32)[C@H](O)[C@@H]1OP(=O)(O)O = 1.5
CC(=O)SCCNC(=O)CCNC(=O)[C@H](O)C(C)(C)COP(=O)(O)OP(=O)(O)OC[C@H]1O[C@@H](n2cnc3c(N)ncnc32)[C@H](O)[C@@H]1OP(=O)(O)O = 1.5

Turning to the following molecule.
Give its h (Hill coefficient) value. Item: `CC(=O)CCCNC(=O)CCNC(=O)[C@H](O)C(C)(C)COP(=O)(O)OP(=O)(O)OC[C@H]1O[C@@H](n2cnc3c(N)ncnc32)[C@H](O)[C@@H]1OP(=O)(O)O`
1.5

* * *

target: WT SaPC (Staphylococcus aureus); experiment: Pyruvate carboxylation assay; type: biochemical; details: Acyl-CoA + 20 mM L-aspartate; Table 1
Attribute Measured: h (Hill coefficient)
One number for each entry.

CC(C)(COP(=O)(O)OP(=O)(O)OC[C@H]1O[C@@H](n2cnc3c(N)ncnc32)[C@H](O)[C@@H]1OP(=O)(O)O)[C@@H](O)C(=O)NCCC(=O)NCCS = 1.8
CC(=O)CCCNC(=O)CCNC(=O)[C@H](O)C(C)(C)COP(=O)(O)OP(=O)(O)OC[C@H]1O[C@@H](n2cnc3c(N)ncnc32)[C@H](O)[C@@H]1OP(=O)(O)O = 3.1
CC(=O)SCCNC(=O)CCNC(=O)[C@H](O)C(C)(C)COP(=O)(O)OP(=O)(O)OC[C@H]1O[C@@H](n2cnc3c(N)ncnc32)[C@H](O)[C@@H]1OP(=O)(O)O = 3.3

Could you now consider this next compound?
Any idea what h (Hill coefficient) was measured for `CC(=O)OCCNC(=O)CCNC(=O)[C@H](O)C(C)(C)COP(=O)(O)OP(=O)(O)OC[C@H]1O[C@@H](n2cnc3c(N)ncnc32)[C@H](O)[C@@H]1OP(=O)(O)O` ?
3.3
